The compounds listed here are annotated with their Blutzuckersenkende Wirkung, Werte in Prozent gegenüber Kontrolle.
tested on: weiblichen Ratten; assay: Blood-sugar-lowering effect in fasted female rats (glucose by hexokinase method); type: in vivo; details: 5 mg/kg by gavage, 1 hour after administration, rats fasted 24 h
Your answer is read as Prozent, so omit the unit and give the number.

In the examples that follow, each entry is paired with its recorded Blutzuckersenkende Wirkung, Werte in Prozent gegenüber Kontrolle.
Compound: O=C(O)c1ccc(CCNC(=O)c2cc(F)ccc2N2CCCCCCCC2)cc1
U: Prozent
Reported Result: -31
//
Compound: C[C@@H]1C[C@H](C)CN(c2ncc(Cl)cc2C(=O)NCCc2ccc(C(=O)O)cc2)C1
U: Prozent
Reported Result: -37
//
Compound: Cc1ccc(N2CCCCCCCC2)c(C(=O)NCCc2ccc(C(=O)O)cc2)c1
U: Prozent
Reported Result: -30

[ask] Query (compound): O=C(O)c1ccc(CCNC(=O)c2cc(Cl)ccc2N2CCC3CCCC2C3)cc1 (stereo not shown) ; field requested: Blutzuckersenkende Wirkung, Werte in Prozent gegenüber Kontrolle
[reply] -42

----------
The molecules listed here are annotated with their Blutzuckersenkende Wirkung, Werte in Prozent gegenüber Kontrolle.
system: weiblichen Ratten; experiment: Blood-sugar-lowering effect in fasted female rats (glucose by hexokinase method); assay type: in vivo; settings: 5 mg/kg by gavage, 4 hours after administration, rats fasted 24 h
Your answer is read as Prozent, so omit the unit and give the number.

In the examples that follow, each entry is paired with its recorded Blutzuckersenkende Wirkung, Werte in Prozent gegenüber Kontrolle.
Molecule: O=C(O)c1ccc(CCNC(=O)c2cc(Cl)ccc2N2CCC3CCCC2C3)cc1 (stereo not shown)
System Name: weiblichen Ratten
Reported Result: -32
--
Molecule: O=C(O)c1ccc(CCNC(=O)c2cc(F)ccc2N2CCCCCCCC2)cc1
System Name: weiblichen Ratten
Reported Result: -34

[ask] Query (molecule): C[C@@H]1C[C@H](C)CN(c2ncc(Cl)cc2C(=O)NCCc2ccc(C(=O)O)cc2)C1 ; field requested: Blutzuckersenkende Wirkung, Werte in Prozent gegenüber Kontrolle
[reply] -38

[ask] Query Cc1ccc(N2CCCCCCCC2)c(C(=O)NCCc2ccc(C(=O)O)cc2)c1 next
[reply] -26

----------
The compounds listed here are annotated with their Blutzuckersenkende Wirkung, Werte in Prozent gegenüber Kontrolle.
system: weiblichen Ratten; assay: Blood-sugar-lowering effect in fasted female rats (glucose by hexokinase method); assay type: in vivo; settings: 5 mg/kg by gavage, 3 hours after administration, rats fasted 24 h
Your answer is read as Prozent, so omit the unit and give the number.

Compound: O=C(O)c1ccc(CCNC(=O)c2cc(Cl)ccc2N2CCC3CCCC2C3)cc1 (stereo not shown)
U: Prozent
Reported Result: -36

[ask] Query (compound): O=C(O)c1ccc(CCNC(=O)c2cc(F)ccc2N2CCCCCCCC2)cc1 ; field requested: Blutzuckersenkende Wirkung, Werte in Prozent gegenüber Kontrolle
[reply] -34

[ask] Query C[C@@H]1C[C@H](C)CN(c2ncc(Cl)cc2C(=O)NCCc2ccc(C(=O)O)cc2)C1 next
[reply] -40

[ask] Query Cc1ccc(N2CCCCCCCC2)c(C(=O)NCCc2ccc(C(=O)O)cc2)c1 next
[reply] -35

----------
The molecules listed here are annotated with their Blutzuckersenkende Wirkung, Werte in Prozent gegenüber Kontrolle.
Tested on: weiblichen Ratten
Assay: Blood-sugar-lowering effect in fasted female rats (glucose by hexokinase method)
Format: in vivo
Conditions: 5 mg/kg by gavage, 2 hours after administration, rats fasted 24 h
Description: Die blutzuckersenkende Wirkung der zu untersuchenden Substanzen wurde an weiblichen Ratten eigener Zucht mit dem Gewicht von 180-220 g geprüft, welche 24 Stunden vor Versuchsbeginn nüchtern gesetzt wurden. Die zu untersuchenden Substanzen wurden unmittelbar vor Versuchsbeginn in 1,5%- iger Methylcellulose suspendiert und per Schlundsonde appliziert. Die Blutentnahme erfolgte unmittelbar vor Substanzapplikation, sowie 1, 2, 3 und 4 Stunden danach jeweils aus dem retroorbitalen Venenplexus. […]
Your answer is read as Prozent, so omit the unit and give the number.

In the examples that follow, each entry is paired with its recorded Blutzuckersenkende Wirkung, Werte in Prozent gegenüber Kontrolle.
Molecule: O=C(O)c1ccc(CCNC(=O)c2cc(Cl)ccc2N2CCC3CCCC2C3)cc1 (stereo not shown)
U: Prozent
Reported Result: -43

Molecule: O=C(O)c1ccc(CCNC(=O)c2cc(F)ccc2N2CCCCCCCC2)cc1
U: Prozent
Reported Result: -36

Molecule: C[C@@H]1C[C@H](C)CN(c2ncc(Cl)cc2C(=O)NCCc2ccc(C(=O)O)cc2)C1
U: Prozent
Reported Result: -39

In the following, a different molecule is considered.
[ask] Entry Cc1ccc(N2CCCCCCCC2)c(C(=O)NCCc2ccc(C(=O)O)cc2)c1 , system weiblichen Ratten: what Blutzuckersenkende Wirkung, Werte in Prozent gegenüber Kontrolle was measured?
[reply] -34
